Form field: kon (one value per entry).
Tgt: T1, MET-R Fc (R&D Systems, catalog number 8614-MT) (UniProt P08581 25-932)
T1 construct: Bought reagent used as SPR analyte; not shown: Fc part of the bought fusion protein
Experimental protocol: SPR (BIAcore T200), Fab captured on anti-Fab chip, MET-R Fc as analyte, 25 C, 1:1 model
Answer by giving the amount and then stating its unit.

Examples from the recorded data:
anti-MET Fab variant CDR L3 Y92A (Fab, V domains shown, Fab; variable domains only; Kabat numbering) VH: EVQLVESGGGLVQPGGSLRLSCAASGYTFTSYWLHWVRQAPGKGLEWVGMIDPSNSDTRFNPNFKDRFTISADTSKNTAYLQMNSLRAEDTAVYYCATYRSYVTPLDYWGQGTLVTVSS VL: DIQMTQSPSSLSASVGDRVTITCKSSQSLLYTSSQKNYLAWYQQKPGKAPKLLIYWASTRESGVPSRFSGSGSGTDFTLTISSLQPEDFATYYCQQYAAYPWTFGQGTKVEIK | 172000 M⁻¹ s⁻¹
anti-MET Fab variant CDR L3 Y94A (Fab, V domains shown, Fab; variable domains only; Kabat numbering) VH: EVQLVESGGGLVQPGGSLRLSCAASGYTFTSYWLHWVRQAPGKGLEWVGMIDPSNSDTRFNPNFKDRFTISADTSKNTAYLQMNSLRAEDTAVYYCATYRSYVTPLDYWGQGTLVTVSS VL: DIQMTQSPSSLSASVGDRVTITCKSSQSLLYTSSQKNYLAWYQQKPGKAPKLLIYWASTRESGVPSRFSGSGSGTDFTLTISSLQPEDFATYYCQQYYAAPWTFGQGTKVEIK | 115000 M⁻¹ s⁻¹

Now take the following binder into account.
Return kon (reported value) for this binder: anti-MET Fab variant CDR L3 Y91A (Fab, V domains shown, Fab; variable domains only) VH: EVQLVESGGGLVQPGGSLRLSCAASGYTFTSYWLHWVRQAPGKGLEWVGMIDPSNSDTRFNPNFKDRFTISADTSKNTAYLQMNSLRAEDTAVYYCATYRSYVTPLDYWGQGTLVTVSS VL: DIQMTQSPSSLSASVGDRVTITCKSSQSLLYTSSQKNYLAWYQQKPGKAPKLLIYWASTRESGVPSRFSGSGSGTDFTLTISSLQPEDFATYYCQQAYAYPWTFGQGTKVEIK
70000 M⁻¹ s⁻¹
